Tested on: MEL-3 human melanoma
measurement protocol: MTT cytotoxicity assay, MEL-3
Assay type: cell-based
assay conditions: 72 hours, read-out: TCS50
observable: IC50 (nM)
Form entry: value (nM) — number only.

Record "CC(=O)OC[C@@]1(C(=O)O)CC[C@]2(C)[C@H](CC[C@@H]3[C@@]4(C)CC[C@H](OC(C)=O)C(C)(C)[C@@H]4CC[C@]32C)C1=O" . Reported IC50: 1300
